Molecular target: PTPN2 (Homo sapiens, UniProt P17706)
Sequence (P17706 whole entry): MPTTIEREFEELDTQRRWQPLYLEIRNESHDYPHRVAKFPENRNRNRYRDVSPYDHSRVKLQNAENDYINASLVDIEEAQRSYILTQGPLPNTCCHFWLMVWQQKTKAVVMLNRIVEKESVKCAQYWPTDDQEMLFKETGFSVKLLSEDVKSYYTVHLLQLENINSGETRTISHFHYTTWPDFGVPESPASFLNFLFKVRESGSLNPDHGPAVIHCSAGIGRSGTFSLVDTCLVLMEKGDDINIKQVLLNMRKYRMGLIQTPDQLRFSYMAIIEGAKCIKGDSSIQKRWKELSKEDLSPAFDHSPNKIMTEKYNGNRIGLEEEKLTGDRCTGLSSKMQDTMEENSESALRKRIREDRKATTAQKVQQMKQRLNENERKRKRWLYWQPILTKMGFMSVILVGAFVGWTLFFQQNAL
Assay: Phosphatase activity assay using DiFMUP as substrate
Type: biochemical
Parameters: purchased MilliporeSigma SRP5075
Settings: 10 mM DTT, PTPN2 0.15 nM, room temperature, read-out: PTPN2 BCHEM DIFMUP IC50
value.kind: IC50 (µM)

Cc1cc(NCc2cc(O)c(N3CC(=O)NS3(=O)=O)c(F)c2)ncn1
0.02

(a) Cc1ccc(NCc2cc(O)c(N3CC(=O)NS3(=O)=O)c(F)c2)nn1
(b) O=C1CN(c2c(O)cc(CNc3cncc(-c4ccccc4)c3)cc2F)S(=O)(=O)N1
(c) N#Cc1cncc(NCc2cc(O)c(N3CC(=O)NS3(=O)=O)c(F)c2)c1
query: Please produce an ascending ranking of these compounds based on IC50. Answer by listing the labels in the requested order.
result: c, a, b
(c: 0.011 µM, a: 0.02 µM, b: 0.1 µM)

* * *

Target: PTPN2 (Homo sapiens, UniProt P17706)
Assay: Phosphatase activity assay using DiFMUP as substrate
Format: biochemical
Design: purchased MilliporeSigma SRP5075
Settings: 10 mM DTT, PTPN2 0.15 nM, room temperature, read-out: PTPN2 BCHEM DIFMUP IC50
pIC50: −log10 of the molar value.
value.kind: pIC50

CCN(Cc1cc(O)c(N2CC(=O)NS2(=O)=O)c(F)c1)c1nc(C)cc(-c2ccccc2C#N)n1
6.31
Cc1cc(C)nc(NCc2cc(O)c(N3CC(=O)NS3(=O)=O)c(F)c2)n1
7.22
Cc1c(NCc2cc(O)c(N3CC(=O)NS3(=O)=O)c(F)c2)ccnc1-c1ccc(C(C)(C)C)cc1
7.52
COc1nc(NCc2cc(O)c(N3CC(=O)NS3(=O)=O)c(F)c2)cnc1C
7.70
COc1ncc(C)nc1NCc1cc(O)c(N2CC(=O)NS2(=O)=O)c(F)c1
4.95
Cc1ccnc(C)c1NCc1cc(O)c(N2CC(=O)NS2(=O)=O)c(F)c1
7.22
CC(C)c1cncc(NCc2cc(O)c(N3CC(=O)NS3(=O)=O)c(F)c2)c1
7.30
Cc1ncc(C)c(NCc2cc(O)c(N3CC(=O)NS3(=O)=O)c(F)c2)n1
7.52

(1) O=C1CN(c2c(O)cc(CNc3ccc(-c4ccccc4)nc3)cc2F)S(=O)(=O)N1
(2) CN(C)c1ccc(NCc2cc(O)c(N3CC(=O)NS3(=O)=O)c(F)c2)cn1
(3) O=C1CN(c2c(O)cc(CNc3cnccc3-c3ccc(C(F)(F)F)cc3)cc2F)S(=O)(=O)N1
(4) COc1cnc(C)c(NCc2cc(O)c(N3CC(=O)NS3(=O)=O)c(F)c2)n1
(5) N#Cc1cnc(NCc2cc(O)c(N3CC(=O)NS3(=O)=O)c(F)c2)nc1
query: Please produce an ascending ranking of these compounds based on pIC50. Answer by listing the labels in the requested order.
result: 1, 5, 2, 3, 4
(1: 6.40, 5: 6.68, 2: 6.89, 3: 7.22, 4: 7.70)

(P) Cc1cc(NCc2cc(O)c(N3CC(=O)NS3(=O)=O)c(F)c2)nc(C)n1
(Q) O=C1CN(c2c(O)cc(CNc3cncc(Cl)c3)cc2F)S(=O)(=O)N1
query: Lab notebook, comparison: P versus Q , higher pIC50 goes to which? Which one? Tell me its label.
result: P

(a) Cc1cc(NCc2cc(O)c(N3CC(=O)NS3(=O)=O)c(F)c2)cc(C)n1
(b) O=C1CN(c2c(O)cc(CNc3cncc(C(F)(F)F)c3)cc2F)S(=O)(=O)N1
query: In terms of reported pIC50, does a or b have the smaller number? Which one? Tell me its label.
result: b

* * *

Tested on: phospho-STAT1 (Tyr701)
Assay: Phospho-STAT1 (Tyr701) HTRF assay in B16-F10 cells
Type: cell-based
Details: mouse IFN-gamma 100 ng/ml, 1 hour, read-out: pSTAT1 HTRF B16 EC50
value.kind: EC50 (nM)

O=C1CN(c2c(O)cc(CNc3cncc(Cl)c3)cc2F)S(=O)(=O)N1
2670
Cc1ccc(NCc2cc(O)c(N3CC(=O)NS3(=O)=O)c(F)c2)nn1
250
Cc1ccnc(C)c1NCc1cc(O)c(N2CC(=O)NS2(=O)=O)c(F)c1
6160
Cc1cncc(NCc2cc(O)c(N3CC(=O)NS3(=O)=O)c(F)c2)n1
690
N#Cc1ncc(NCc2cc(O)c(N3CC(=O)NS3(=O)=O)c(F)c2)cn1
730
N#Cc1cncc(NCc2cc(O)c(N3CC(=O)NS3(=O)=O)c(F)c2)c1
1850

(A) CN(C)c1ccc(NCc2cc(O)c(N3CC(=O)NS3(=O)=O)c(F)c2)cn1
(B) COc1cncc(NCc2cc(O)c(N3CC(=O)NS3(=O)=O)c(F)c2)n1
(C) COc1cnc(C)c(NCc2cc(O)c(N3CC(=O)NS3(=O)=O)c(F)c2)n1
(D) CC(C)c1cncc(NCc2cc(O)c(N3CC(=O)NS3(=O)=O)c(F)c2)c1
query: Please produce an ascending ranking of these compounds based on EC50. Answer by listing the labels in the requested order.
result: A, D, B, C
(A: 420 nM, D: 930 nM, B: 1920 nM, C: 7860 nM)

(A) O=C1CN(c2c(O)cc(CNc3ccc(-c4ccccc4)nc3)cc2F)S(=O)(=O)N1
(B) O=C1CN(c2c(O)cc(CNc3ccc(C4CC4)nc3)cc2F)S(=O)(=O)N1
query: In terms of reported EC50, does A or B have the smaller number? Which one? Tell me its label.
result: B

* * *

System: phospho-STAT1 (Tyr701)
Assay: Phospho-STAT1 (Tyr701) HTRF assay in B16-F10 cells
Type: cell-based
Conditions: mouse IFN-gamma 100 ng/ml, 1 hour, read-out: pSTAT1 HTRF B16 EC50
pEC50: −log10 of the molar value.
value.kind: pEC50

Cc1nccc(NCc2cc(O)c(N3CC(=O)NS3(=O)=O)c(F)c2)n1
6.10
CC(C)c1cnc(NCc2cc(O)c(N3CC(=O)NS3(=O)=O)c(F)c2)nc1
5.75
Cc1cc(C)nc(NCc2cc(O)c(N3CC(=O)NS3(=O)=O)c(F)c2)n1
6.12
Cc1ncc(C)c(NCc2cc(O)c(N3CC(=O)NS3(=O)=O)c(F)c2)n1
5.07
N#Cc1cnc(NCc2cc(O)c(N3CC(=O)NS3(=O)=O)c(F)c2)nc1
6.31

(A) O=C1CN(c2c(O)cc(CNc3cncc(C(F)(F)F)c3)cc2F)S(=O)(=O)N1
(B) Cc1cc(NCc2cc(O)c(N3CC(=O)NS3(=O)=O)c(F)c2)ncn1
query: Lab notebook, comparison: A versus B , higher pEC50 goes to which? Which one? Tell me its label.
result: B
(B: 5.92, A: 5.64)

(A) COc1nc(NCc2cc(O)c(N3CC(=O)NS3(=O)=O)c(F)c2)cnc1C
(B) Cc1ncc(NCc2cc(O)c(N3CC(=O)NS3(=O)=O)c(F)c2)nc1C
query: In terms of reported pEC50, does A or B have the smaller number? Which one? Tell me its label.
result: A
(A: 5.46, B: 6.43)

(1) Cc1cc(NCc2cc(O)c(N3CC(=O)NS3(=O)=O)c(F)c2)nc(C)n1
(2) COc1ncc(C)c(NCc2cc(O)c(N3CC(=O)NS3(=O)=O)c(F)c2)n1
(3) Cc1cc(NCc2cc(O)c(N3CC(=O)NS3(=O)=O)c(F)c2)cc(C)n1
query: Please produce an ascending ranking of these compounds based on pEC50. Answer by listing the labels in the requested order.
result: 3, 2, 1
(3: 4.85, 2: 5.17, 1: 5.73)

# credit: patent US20240228476A1
